Values from PubChem BioAssay (EPA / NIEHS)

experimental target: Estrogen receptor (Homo sapiens) (UniProt P03372)
Sequence (P03372 whole entry, looked up): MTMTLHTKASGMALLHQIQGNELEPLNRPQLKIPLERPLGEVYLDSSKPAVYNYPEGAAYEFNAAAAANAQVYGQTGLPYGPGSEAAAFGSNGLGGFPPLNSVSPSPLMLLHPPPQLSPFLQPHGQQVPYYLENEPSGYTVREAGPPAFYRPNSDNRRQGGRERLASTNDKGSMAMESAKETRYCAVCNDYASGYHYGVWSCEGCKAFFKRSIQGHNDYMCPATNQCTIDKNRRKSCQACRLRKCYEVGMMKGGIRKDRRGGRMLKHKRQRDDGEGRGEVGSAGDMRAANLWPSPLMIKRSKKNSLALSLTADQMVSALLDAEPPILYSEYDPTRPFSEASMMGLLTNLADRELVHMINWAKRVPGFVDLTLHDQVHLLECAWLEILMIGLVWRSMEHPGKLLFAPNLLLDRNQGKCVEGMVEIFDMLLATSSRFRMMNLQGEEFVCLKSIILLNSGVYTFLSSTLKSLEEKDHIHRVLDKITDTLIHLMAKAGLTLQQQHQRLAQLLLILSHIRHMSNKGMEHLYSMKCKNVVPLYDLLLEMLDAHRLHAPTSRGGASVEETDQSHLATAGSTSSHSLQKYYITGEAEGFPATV
protocol details: ATG_ERa_TRANS: Attagene TRANS-FACTORIAL HepG2 Assay for human Estrogen Receptor alpha (ERa) (AID 2282970)
condition notes: HepG2 Attagene TRANS ERa GAL4 reporter, mRNA
Records with an inconclusive call do not appear. Calls of active or inactive are those of the source. How the source made its calls: active means hit-call score of the fitted dose curve at least 0.9, where 1 is the maximum; inconclusive means response in the unintended direction; inactive means score below 0.9.
Possible outcomes: active, inactive

COC(OC)C(C)c1ccccc1 (centres undefined)	inactive
Oc1ccc(Cl)cc1C1CCCC1	active
c1cc[c]([Bi]([c]2ccccc2)[c]2ccccc2)cc1	active
COc1ccc2ccccc2c1	inactive
NC(N)=Nc1nc(CSCCC(N)=NS(N)(=O)=O)cs1	inactive
O=[N+]([O-])c1ccc2nc[nH]c2c1	inactive
CCCc1c(OCCCCc2nn[nH]n2)ccc(C(C)=O)c1O	inactive
CCC(C)NC(N)=O (centres undefined)	inactive
CCCCCCC1CCC(=O)O1 (centres undefined)	inactive
